Where do the numbers come from? From ChEMBL document CHEMBL1268989.

# Test Target: Voltage-dependent T-type calcium channel subunit alpha-1H (Homo sapiens)
# Test: Antagonist activity against T-type calcium channel subunit alpha-1H assessed as inactivation of channel current at 0.3 uM by cell based patch clamp assay
# Type: functional
Cut-off 60% on inhibition, inclusive. At or above means Criterion met; below means Criterion not met.

Evaluate CC(C)(C)CCN1CCC2(CCN(C(c3ccc(F)cc3)c3ccc(F)cc3)CC2)C1=O : inhibition at minimum 60%? Criterion not met

Evaluate CC(C)C(C(C)C)N1CCC2(CCN(Cc3ccc(Cl)cc3)C2=O)CC1 : inhibition at minimum 60%? Criterion not met

Evaluate O=C1N(Cc2ccc(Cl)cc2)CCC12CCN(Cc1cccc(Oc3ccccc3)c1)CC2 : inhibition at minimum 60%? Criterion not met

Evaluate O=C1N(Cc2cccc(Cl)c2)CCC12CCN(C(c1ccc(F)cc1)c1ccc(F)cc1)CC2 : inhibition at minimum 60%? Criterion met
